Origin of measurements: BindingDB's records for doi:10.1021/jm00399a033

- system: Angiotensin-converting enzyme (Oryctolagus cuniculus)
- Sequence (P12822 whole entry): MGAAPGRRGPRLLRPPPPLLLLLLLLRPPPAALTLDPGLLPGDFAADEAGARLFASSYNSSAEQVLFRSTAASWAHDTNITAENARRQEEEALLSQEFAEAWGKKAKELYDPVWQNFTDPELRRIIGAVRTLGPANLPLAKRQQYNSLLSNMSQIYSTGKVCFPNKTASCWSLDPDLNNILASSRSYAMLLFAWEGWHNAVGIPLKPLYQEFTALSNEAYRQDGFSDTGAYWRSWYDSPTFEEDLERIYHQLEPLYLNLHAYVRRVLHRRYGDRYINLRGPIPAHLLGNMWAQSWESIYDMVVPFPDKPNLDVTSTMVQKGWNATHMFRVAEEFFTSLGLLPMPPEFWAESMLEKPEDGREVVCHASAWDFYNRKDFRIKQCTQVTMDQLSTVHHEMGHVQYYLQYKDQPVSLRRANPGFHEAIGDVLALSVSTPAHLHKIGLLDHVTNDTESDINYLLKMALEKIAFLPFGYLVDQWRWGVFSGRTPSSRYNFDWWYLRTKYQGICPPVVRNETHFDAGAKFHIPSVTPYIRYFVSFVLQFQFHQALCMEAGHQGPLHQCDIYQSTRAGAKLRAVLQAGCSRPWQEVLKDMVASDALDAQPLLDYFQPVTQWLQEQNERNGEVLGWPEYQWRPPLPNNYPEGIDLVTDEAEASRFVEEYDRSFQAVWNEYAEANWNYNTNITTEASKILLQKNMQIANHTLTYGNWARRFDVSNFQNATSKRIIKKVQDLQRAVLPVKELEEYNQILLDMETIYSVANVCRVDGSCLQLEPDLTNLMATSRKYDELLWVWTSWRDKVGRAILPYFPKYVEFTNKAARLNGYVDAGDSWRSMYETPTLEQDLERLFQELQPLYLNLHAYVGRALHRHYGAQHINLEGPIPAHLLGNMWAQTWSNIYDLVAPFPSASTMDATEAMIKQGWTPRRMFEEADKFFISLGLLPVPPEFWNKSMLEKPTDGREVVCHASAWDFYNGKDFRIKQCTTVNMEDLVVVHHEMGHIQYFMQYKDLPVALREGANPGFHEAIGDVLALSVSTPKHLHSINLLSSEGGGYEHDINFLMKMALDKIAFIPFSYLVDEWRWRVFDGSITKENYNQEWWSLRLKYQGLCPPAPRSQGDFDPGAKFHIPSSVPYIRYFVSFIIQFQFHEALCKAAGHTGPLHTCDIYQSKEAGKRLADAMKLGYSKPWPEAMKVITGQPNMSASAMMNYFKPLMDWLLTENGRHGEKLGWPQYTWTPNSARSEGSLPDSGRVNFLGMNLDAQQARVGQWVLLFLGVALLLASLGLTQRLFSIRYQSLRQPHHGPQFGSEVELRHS
readoutKind: IC50 (µM)
Entry rule: numbers only, all in µM.

Task: Request the reported IC50 associated with `O=C(O)[C@@H]1CCCN1C(=O)CCS`
Output: 0.2
